assay.system: T1, human GARP-proTGFβ1 complex (human, UniProt Q14392 20-627; P01137 30-390)
T1 construct: also called hGARP-proTGFβ1; hGARP
T1 sequence (Q14392 20-627, chain 1 of 2): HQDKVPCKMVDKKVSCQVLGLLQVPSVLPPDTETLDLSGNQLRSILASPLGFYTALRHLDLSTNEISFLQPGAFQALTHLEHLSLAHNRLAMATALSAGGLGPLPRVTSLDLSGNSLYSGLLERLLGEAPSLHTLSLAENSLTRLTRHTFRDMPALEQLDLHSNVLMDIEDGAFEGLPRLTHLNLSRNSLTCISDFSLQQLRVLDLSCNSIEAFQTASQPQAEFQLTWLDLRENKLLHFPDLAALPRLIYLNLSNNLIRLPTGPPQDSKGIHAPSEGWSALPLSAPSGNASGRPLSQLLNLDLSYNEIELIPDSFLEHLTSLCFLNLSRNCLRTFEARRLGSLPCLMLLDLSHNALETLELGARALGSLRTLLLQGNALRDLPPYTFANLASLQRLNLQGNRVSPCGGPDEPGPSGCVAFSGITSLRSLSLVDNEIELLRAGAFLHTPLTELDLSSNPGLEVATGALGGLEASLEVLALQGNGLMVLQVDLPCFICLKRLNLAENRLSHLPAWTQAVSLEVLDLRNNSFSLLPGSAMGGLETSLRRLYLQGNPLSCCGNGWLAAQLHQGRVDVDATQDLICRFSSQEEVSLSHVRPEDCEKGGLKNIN
T1 sequence (P01137 30-390, chain 2 of 2): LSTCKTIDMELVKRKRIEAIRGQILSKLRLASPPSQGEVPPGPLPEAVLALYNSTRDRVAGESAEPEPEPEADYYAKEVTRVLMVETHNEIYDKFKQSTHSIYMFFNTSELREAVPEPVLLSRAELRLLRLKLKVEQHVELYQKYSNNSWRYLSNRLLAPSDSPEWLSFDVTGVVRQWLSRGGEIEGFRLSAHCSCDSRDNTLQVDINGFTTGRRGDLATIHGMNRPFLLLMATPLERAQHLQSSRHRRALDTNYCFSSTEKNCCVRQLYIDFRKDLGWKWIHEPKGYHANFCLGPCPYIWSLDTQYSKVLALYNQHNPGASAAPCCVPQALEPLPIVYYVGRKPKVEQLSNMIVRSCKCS
protocol.details: MSD-SET, solution equilibrium titration
Known Kd of a selection of binders
outcome.measure: Kd (nM)

# binder, test.value
records = [
    ("Ab19 (antibody, IgG4, V domains shown) VH: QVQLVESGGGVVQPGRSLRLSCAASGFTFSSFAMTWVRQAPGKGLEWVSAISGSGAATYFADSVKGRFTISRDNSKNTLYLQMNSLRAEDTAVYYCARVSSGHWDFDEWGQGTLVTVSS VL: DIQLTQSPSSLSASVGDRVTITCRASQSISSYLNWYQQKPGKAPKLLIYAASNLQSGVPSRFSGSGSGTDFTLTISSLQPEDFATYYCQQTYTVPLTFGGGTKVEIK", 3.8),
    ("Ab6 (antibody, human IgG4 S228P, kappa, V domains shown) VH: EVQLVESGGGLVQPGGSLRLSCTASGFTFSSFSMDWVRQAPGKGLEWVSYISPSADTIYYADSVKGRFTISRDNAKNTLYLQMNSLRAEDTAVYYCARGVLDYGDMLMPWGQGTLVTVSS VL: DIQMTQSPSSLSASVGDRVTITCQASQDITNYLNWYQQKPGKAPKLLIYDASNLETGVPSRFSGSGSGTDFTFTISSLQPEDIATYYCQQADNHPPWTFGGGTKVEIKR", 0.027),
    ("Ab24 (antibody, IgG4, V domains shown) VH: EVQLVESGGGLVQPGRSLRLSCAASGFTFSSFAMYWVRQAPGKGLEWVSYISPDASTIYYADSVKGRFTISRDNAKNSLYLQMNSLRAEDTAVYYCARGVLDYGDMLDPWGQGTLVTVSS VL: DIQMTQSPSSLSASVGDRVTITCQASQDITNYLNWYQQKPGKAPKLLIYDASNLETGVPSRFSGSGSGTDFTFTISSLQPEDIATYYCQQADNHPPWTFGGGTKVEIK", 0.019),
    ("Ab29 (antibody, IgG4, V domains shown) VH: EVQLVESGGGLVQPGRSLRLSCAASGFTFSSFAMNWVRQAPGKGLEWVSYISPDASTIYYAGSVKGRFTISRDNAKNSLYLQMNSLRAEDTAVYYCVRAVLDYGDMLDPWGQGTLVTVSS VL: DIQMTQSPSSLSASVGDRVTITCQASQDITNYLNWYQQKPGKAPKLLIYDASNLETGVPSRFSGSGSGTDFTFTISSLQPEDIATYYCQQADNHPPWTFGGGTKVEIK", 0.0055),
    ("Ab33 (antibody, IgG4, V domains shown) VH: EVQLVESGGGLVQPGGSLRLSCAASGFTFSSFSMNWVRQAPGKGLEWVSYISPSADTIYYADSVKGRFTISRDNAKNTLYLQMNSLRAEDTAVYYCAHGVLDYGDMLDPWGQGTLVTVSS VL: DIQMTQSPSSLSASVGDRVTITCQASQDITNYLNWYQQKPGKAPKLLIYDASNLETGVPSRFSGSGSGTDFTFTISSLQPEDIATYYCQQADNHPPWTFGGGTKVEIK", 0.0078),
    ("Ab31 (antibody, IgG4, V domains shown) VH: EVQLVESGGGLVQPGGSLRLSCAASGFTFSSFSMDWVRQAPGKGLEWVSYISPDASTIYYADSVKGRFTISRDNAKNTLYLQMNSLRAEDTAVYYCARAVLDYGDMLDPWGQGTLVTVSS VL: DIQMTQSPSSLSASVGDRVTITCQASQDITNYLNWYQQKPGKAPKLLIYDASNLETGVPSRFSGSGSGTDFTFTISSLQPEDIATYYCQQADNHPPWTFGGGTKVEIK", 0.019),
    ("Ab22 (antibody, IgG4, V domains shown) VH: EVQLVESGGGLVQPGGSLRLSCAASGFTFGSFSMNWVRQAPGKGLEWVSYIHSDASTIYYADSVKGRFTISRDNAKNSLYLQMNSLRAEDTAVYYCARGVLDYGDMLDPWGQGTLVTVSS VL: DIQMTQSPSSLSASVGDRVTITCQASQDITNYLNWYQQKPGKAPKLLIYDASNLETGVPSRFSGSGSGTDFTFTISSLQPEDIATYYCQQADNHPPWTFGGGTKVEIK", 0.027),
    ("Ab11 (antibody, IgG4, V domains shown) VH: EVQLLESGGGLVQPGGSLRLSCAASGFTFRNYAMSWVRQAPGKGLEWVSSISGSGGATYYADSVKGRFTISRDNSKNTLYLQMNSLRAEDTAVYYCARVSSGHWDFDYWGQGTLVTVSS VL: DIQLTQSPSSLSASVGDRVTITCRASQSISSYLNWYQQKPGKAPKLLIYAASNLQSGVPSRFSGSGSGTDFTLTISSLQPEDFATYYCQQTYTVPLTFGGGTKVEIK", 3),
    ("Ab32 (antibody, IgG4, V domains shown) VH: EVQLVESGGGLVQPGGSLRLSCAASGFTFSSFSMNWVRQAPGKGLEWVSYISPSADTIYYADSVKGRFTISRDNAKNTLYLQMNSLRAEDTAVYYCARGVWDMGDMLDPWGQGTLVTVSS VL: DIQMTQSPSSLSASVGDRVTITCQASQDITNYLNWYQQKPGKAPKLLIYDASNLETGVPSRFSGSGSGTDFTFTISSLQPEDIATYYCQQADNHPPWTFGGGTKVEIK", 0.015),
]
